- Method Description: Tissue distribution after single gavage in C57BL/6 mice (LC-MS)
- Assay type: in vivo
- Stated Conditions: six hours after single gavage with 1 μmole
Decision: Compound Concentration Mean ± SE, Pancreas >= 2 µmol/kg yields MET, all other cases yield NOT MET.

Compound: CC1(C)CCC2(C(=O)n3cnc(-c4ccccn4)c3)CCC3(C)C(C(=O)C=C4C5(C)C=C(C#N)C(=O)C(C)(C)C5CCC43C)C2C1 (centres unmarked)
Label Value: MET
//
Compound: CC1(C)CCC2(C(=O)n3ccnc3)CCC3(C)C(C(=O)C=C4C5(C)C=C(C#N)C(=O)C(C)(C)C5CCC43C)C2C1 (centres unmarked) [CDDO-Im 1, reference compound]
Label Value: NOT MET
//
Compound: CC1(C)CCC2(C(=O)n3cnc(-c4ccncc4)c3)CCC3(C)C(C(=O)C=C4C5(C)C=C(C#N)C(=O)C(C)(C)C5CCC43C)C2C1 (centres unmarked)
Label Value: NOT MET
//
Compound: CC1(C)CCC2(C(=O)n3cnc(-c4cccnc4)c3)CCC3(C)C(C(=O)C=C4C5(C)C=C(C#N)C(=O)C(C)(C)C5CCC43C)C2C1 (centres unmarked)
Label Value: MET

* * *

Reported Compound Concentration Mean ± SE, Lungs values follow for various compounds
- Method Description: Tissue distribution after single gavage in C57BL/6 mice (LC-MS)
- Type: in vivo
- Stated Conditions: six hours after single gavage with 1 μmole

Compound: CC1(C)CCC2(C(=O)n3cnc(-c4cccnc4)c3)CCC3(C)C(C(=O)C=C4C5(C)C=C(C#N)C(=O)C(C)(C)C5CCC43C)C2C1 (centres unmarked)
Unit Name: µmol/kg
Compound Concentration Mean ± SE, Lungs: 2.49
--
Compound: CC1(C)CCC2(C(=O)n3ccnc3)CCC3(C)C(C(=O)C=C4C5(C)C=C(C#N)C(=O)C(C)(C)C5CCC43C)C2C1 (centres unmarked) [CDDO-Im 1, reference compound]
Unit Name: µmol/kg
Compound Concentration Mean ± SE, Lungs: 0.19
--
Compound: CC1(C)CCC2(C(=O)n3cnc(-c4ccncc4)c3)CCC3(C)C(C(=O)C=C4C5(C)C=C(C#N)C(=O)C(C)(C)C5CCC43C)C2C1 (centres unmarked)
Unit Name: µmol/kg
Compound Concentration Mean ± SE, Lungs: 0.17
--
Compound: CC1(C)CCC2(C(=O)n3cnc(-c4ccccn4)c3)CCC3(C)C(C(=O)C=C4C5(C)C=C(C#N)C(=O)C(C)(C)C5CCC43C)C2C1 (centres unmarked)
Unit Name: µmol/kg
Compound Concentration Mean ± SE, Lungs: 2.63
--
Compound: CC1(C)CCC2(C(=O)n3cnc(-c4ccccc4)c3)CCC3(C)C(C(=O)C=C4C5(C)C=C(C#N)C(=O)C(C)(C)C5CCC43C)C2C1 (centres unmarked)
Unit Name: µmol/kg
Compound Concentration Mean ± SE, Lungs: 1.28

* * *

- Method Description: Tissue distribution after single gavage in C57BL/6 mice (LC-MS)
- Type: in vivo
- Stated Conditions: six hours after single gavage with 1 μmole
Decision: Compound Concentration Mean ± SE, Plasma >= 0.1 µmol/kg yields yes, all other cases yield no.

Compound: CC1(C)CCC2(C(=O)n3cnc(-c4ccccc4)c3)CCC3(C)C(C(=O)C=C4C5(C)C=C(C#N)C(=O)C(C)(C)C5CCC43C)C2C1 (centres unmarked) [CDDO-Phenyl-Im 2]
Label Value: yes
//
Compound: CC1(C)CCC2(C(=O)n3ccnc3)CCC3(C)C(C(=O)C=C4C5(C)C=C(C#N)C(=O)C(C)(C)C5CCC43C)C2C1 (centres unmarked) [CDDO-Im 1, reference compound]
Label Value: no
//
Compound: CC1(C)CCC2(C(=O)n3cnc(-c4cccnc4)c3)CCC3(C)C(C(=O)C=C4C5(C)C=C(C#N)C(=O)C(C)(C)C5CCC43C)C2C1 (centres unmarked) [CDDO-3P-Im 3]
Label Value: yes
//
Compound: CC1(C)CCC2(C(=O)n3cnc(-c4ccccn4)c3)CCC3(C)C(C(=O)C=C4C5(C)C=C(C#N)C(=O)C(C)(C)C5CCC43C)C2C1 (centres unmarked) [CDDO-2P-Im 4]
Label Value: yes
//
Compound: CC1(C)CCC2(C(=O)n3cnc(-c4ccncc4)c3)CCC3(C)C(C(=O)C=C4C5(C)C=C(C#N)C(=O)C(C)(C)C5CCC43C)C2C1 (centres unmarked) [CDDO-4P-Im 5]
Label Value: no

* * *

- Method Description: Tissue distribution after single gavage in C57BL/6 mice (LC-MS)
- Assay type: in vivo
- Stated Conditions: six hours after single gavage with 1 μmole
Checkbox rule: Compound Concentration Mean ± SE, Liver lower than 10 µmol/kg = y; Compound Concentration Mean ± SE, Liver not lower than 10 µmol/kg = n.

Compound: CC1(C)CCC2(C(=O)n3cnc(-c4cccnc4)c3)CCC3(C)C(C(=O)C=C4C5(C)C=C(C#N)C(=O)C(C)(C)C5CCC43C)C2C1 (centres unmarked)
Label Value: y
--
Compound: CC1(C)CCC2(C(=O)n3cnc(-c4ccncc4)c3)CCC3(C)C(C(=O)C=C4C5(C)C=C(C#N)C(=O)C(C)(C)C5CCC43C)C2C1 (centres unmarked)
Label Value: y
--
Compound: CC1(C)CCC2(C(=O)n3cnc(-c4ccccc4)c3)CCC3(C)C(C(=O)C=C4C5(C)C=C(C#N)C(=O)C(C)(C)C5CCC43C)C2C1 (centres unmarked)
Label Value: n
--
Compound: CC1(C)CCC2(C(=O)n3ccnc3)CCC3(C)C(C(=O)C=C4C5(C)C=C(C#N)C(=O)C(C)(C)C5CCC43C)C2C1 (centres unmarked) [CDDO-Im 1, reference compound]
Label Value: y
--
Compound: CC1(C)CCC2(C(=O)n3cnc(-c4ccccn4)c3)CCC3(C)C(C(=O)C=C4C5(C)C=C(C#N)C(=O)C(C)(C)C5CCC43C)C2C1 (centres unmarked)
Label Value: n

* * *

- System: RA W264.7 macrophage-like cells
- Method Description: Inhibition of IFNγ-stimulated nitric oxide release (Griess reaction)
- Assay type: cell-based
- Stated Conditions: 10 ng/ml IFNγ, 24 hour exposure; read-out: IC50 (nM) Mean ± SE, NO production
Reported IC50 values follow for various molecules
Measurement Type: IC50 (nM)

Molecule: CC1(C)CCC2(C(=O)n3cnc(-c4ccncc4)c3)CCC3(C)C(C(=O)C=C4C5(C)C=C(C#N)C(=O)C(C)(C)C5CCC43C)C2C1 (stereo not shown) [CDDO-4P-Im 5]
Quantitative Readout: 9

Molecule: CC1(C)CCC2(C(=O)n3cnc(-c4ccccc4)c3)CCC3(C)C(C(=O)C=C4C5(C)C=C(C#N)C(=O)C(C)(C)C5CCC43C)C2C1 (stereo not shown) [CDDO-Phenyl-Im 2]
Quantitative Readout: 14.7

Molecule: CC1(C)CCC2(C(=O)n3cnc(-c4ccccn4)c3)CCC3(C)C(C(=O)C=C4C5(C)C=C(C#N)C(=O)C(C)(C)C5CCC43C)C2C1 (stereo not shown) [CDDO-2P-Im 4]
Quantitative Readout: 5.8

Molecule: CC1(C)CCC2(C(=O)n3cnc(-c4cccnc4)c3)CCC3(C)C(C(=O)C=C4C5(C)C=C(C#N)C(=O)C(C)(C)C5CCC43C)C2C1 (stereo not shown) [CDDO-3P-Im 3]
Quantitative Readout: 4.3

* * *

- Method Description: Stability in human plasma at 37° C. (LC-MS)
- Type: in vitro ADME
- Stated Conditions: up to 6 hours, 37° C.

Compound: CC1(C)CCC2(C(=O)n3cnc(-c4cccnc4)c3)CCC3(C)C(C(=O)C=C4C5(C)C=C(C#N)C(=O)C(C)(C)C5CCC43C)C2C1 (centres unmarked)
stability in human plasma (in words): more stable than CDDO-Im
--
Compound: CC1(C)CCC2(C(=O)n3cnc(-c4ccncc4)c3)CCC3(C)C(C(=O)C=C4C5(C)C=C(C#N)C(=O)C(C)(C)C5CCC43C)C2C1 (centres unmarked)
stability in human plasma (in words): more stable than CDDO-Im
--
Compound: CC1(C)CCC2(C(=O)n3cnc(-c4ccccc4)c3)CCC3(C)C(C(=O)C=C4C5(C)C=C(C#N)C(=O)C(C)(C)C5CCC43C)C2C1 (centres unmarked)
stability in human plasma (in words): more stable than CDDO-Im

From: patent US10189791B2
